# targetDesc: CDK2/CyclinE1 (Homo sapiens (Human), UniProt P24941)
# assayMethodText: CDK2 kinase assay (TR-FRET)
# details: CDK2/CyclinE1 0.5 nM, ATP 50 μM
measurementLabel: IC50 (nM)
A number alone suffices; assume nM.

compound	quantitativeResult
CC(C)NC(=O)OC1COC(c2cc(NC(=O)Cc3ccc(C(F)(F)F)cc3)n[nH]2)C1 (stereo not shown) [Compound 62]	2.3

So what does the record say about IC50 for Cn1nccc1C(=O)Nc1cc([C@@H]2C[C@H](OC(=O)NC(C)(C)C)CO2)[nH]n1 [Compound 102] ?
2.5

So what does the record say about IC50 for CC(C)NC(=O)O[C@@H]1CC[C@H](c2cc(NC(=O)C3CN(S(C)(=O)=O)CC3C)n[nH]2)C1 (stereo partly shown) [Compound 74] ?
2.2

So what does the record say about IC50 for CC(C)NC(=O)O[C@@H]1CC[C@H](c2cc(NC(=O)[C@H]3C[C@@H]3COC(C)C)n[nH]2)C1 [Compound 45] ?
2.7

So what does the record say about IC50 for COC[C@H]1C[C@@H]1C(=O)Nc1cc([C@H]2CC[C@@H](OC(=O)N[C@@H](C)C3CC3)C2)[nH]n1 [Compound 57] ?
5.8

So what does the record say about IC50 for CCS(=O)(=O)N1CC[C@@H](C(=O)Nc2cc([C@H]3CC[C@@H](OC(=O)NC(C)C)C3)[nH]n2)C1 [Compound 49] ?
2.2

So what does the record say about IC50 for COCC1CC(C(=O)Nc2cc([C@H]3CC[C@@H](OC(=O)NC(C)C)C3)[nH]n2)C1 (single isomer, unassigned) [Compound 149] ?
13.4

###

# targetDesc: CDK2/CyclinE1 (Homo sapiens (Human))
# assayMethodText: CDK2 kinase assay (TR-FRET)
# details: CDK2/CyclinE1 0.5 nM, ATP 50 μM
IC50 overview
A number alone suffices; assume nM.

Known IC50 results, listed for orientation:
compound	measurementLabel	readingUnit	quantitativeResult
Cn1nccc1C(=O)Nc1cc([C@@H]2C[C@H](OC(=O)NC3(C)CC3)CO2)[nH]n1	IC50	nM	3.7
Cn1nccc1C(=O)Nc1cc([C@H]2C[C@@H](OC(=O)NC3(C)CC3)CO2)[nH]n1	IC50	nM	1.3

So what does the record say about IC50 for COCc1cc(C(=O)Nc2cc([C@H]3C[C@@H]4[C@H](C3)[C@H]4C(=O)NC(C)(C)C)[nH]n2)n(C)n1 ?
18.8

So what does the record say about IC50 for C#C[C@H]1C[C@@H]1C(=O)Nc1cc([C@H]2C[C@@H](OC(=O)NC3(C)CCC3)CO2)[nH]n1 ?
1.1

So what does the record say about IC50 for CC(C)NC(=O)O[C@@H]1CC[C@H](c2cc(NC(=O)[C@H]3CCN(C(=O)c4cnn(C)c4)C3)n[nH]2)C1 ?
2.9

###

IC50 overview
# targetDesc: CDK2/CyclinE1 (Homo sapiens (Human))
# assayMethodText: CDK2 kinase assay (TR-FRET)
# details: CDK2/CyclinE1 0.5 nM, ATP 50 μM
A number alone suffices; assume nM.

Known IC50 results, listed for orientation:
compound	IC50 (nM)
CC(C)NC(=O)O[C@@H]1CC[C@H](c2cc(NC(=O)C34CC(C3)C4)n[nH]2)C1	1.5
CC(C)NC(=O)O[C@@H]1COC(c2cc(NC(=O)Cc3ccc(OCCN4CCCC4)cc3)n[nH]2)C1 (stereo partly drawn)	14.6
Cn1nccc1C(=O)Nc1cc([C@H]2C[C@@H](OC(=O)NC34CC(F)(C3)C4)CO2)[nH]n1	1.6
COC[C@H]1C[C@@H]1C(=O)Nc1cc([C@H]2CC[C@@H](OC(=O)NC34CC(C3)C4)C2)[nH]n1	0.7
CCC1(NC(=O)O[C@H]2CO[C@@H](c3cc(NC(=O)c4ccnn4C)n[nH]3)C2)CC1	0.9

So what does the record say about IC50 for Cc1c(C2CC2C(=O)Nc2cc([C@H]3CC[C@@H](OC(=O)NC4(C)CC4)C3)[nH]n2)cnn1C (single isomer, unassigned) [Compound 205] ?
24

So what does the record say about IC50 for C#C[C@H]1C[C@@H]1C(=O)Nc1cc([C@@H]2C[C@H](OC(=O)NC3(C)CCC3)CO2)[nH]n1 ?
1.3

So what does the record say about IC50 for C#C[C@H]1C[C@@H]1C(=O)Nc1cc([C@H]2CC[C@@H](OC(=O)NC3(C)COC3)C2)[nH]n1 ?
1.1

So what does the record say about IC50 for C#C[C@H]1C[C@@H]1C(=O)Nc1cc([C@@H]2C[C@H](OC(=O)NC3(C)CC3)CO2)[nH]n1 ?
2.9

So what does the record say about IC50 for CC(C)NC(=O)O[C@@H]1CC[C@H](c2cc(NC(=O)C3CC(C)N(S(C)(=O)=O)C3)n[nH]2)C1 (single isomer, unassigned) [Compound 144] ?
4.3
